SYSTEM_TESTED: glycine transporter-1 (GlyT-1) (Homo sapiens)
Construct: JAR cells (ATCC#HTB-144), which endogenously express GlyT-1; host or cells: JAR human choriocarcinoma cells
Sequence (P48067 1-706): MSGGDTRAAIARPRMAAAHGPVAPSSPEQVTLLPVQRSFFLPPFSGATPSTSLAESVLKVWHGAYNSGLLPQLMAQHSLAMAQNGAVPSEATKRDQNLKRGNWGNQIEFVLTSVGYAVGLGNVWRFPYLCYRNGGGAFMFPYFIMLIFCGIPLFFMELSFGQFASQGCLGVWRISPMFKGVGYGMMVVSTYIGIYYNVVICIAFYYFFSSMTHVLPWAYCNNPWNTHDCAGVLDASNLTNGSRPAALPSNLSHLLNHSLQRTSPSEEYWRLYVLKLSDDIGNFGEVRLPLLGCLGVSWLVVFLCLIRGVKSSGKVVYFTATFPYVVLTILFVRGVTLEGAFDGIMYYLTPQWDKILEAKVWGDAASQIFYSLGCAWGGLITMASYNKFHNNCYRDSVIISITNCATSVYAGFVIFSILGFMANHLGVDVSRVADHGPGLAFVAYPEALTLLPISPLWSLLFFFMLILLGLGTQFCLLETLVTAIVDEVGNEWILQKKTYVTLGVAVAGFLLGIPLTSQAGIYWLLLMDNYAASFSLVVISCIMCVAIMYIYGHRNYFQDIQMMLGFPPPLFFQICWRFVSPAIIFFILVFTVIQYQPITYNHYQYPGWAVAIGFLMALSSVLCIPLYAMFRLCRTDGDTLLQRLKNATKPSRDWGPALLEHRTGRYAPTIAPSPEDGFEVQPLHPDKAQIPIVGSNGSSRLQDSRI
TEST_PROTOCOL: [14C]glycine uptake assay in JAR cells endogenously expressing GlyT-1 (scintillation proximity)
Assay type: cell-based
MEASUREMENT_SETUP: JAR cells, [14C]glycine 5 μM, 3 hour incubation; read-out: GlyT-1 IC50
Where a name gives a salt, the structure may show the parent alone.
MEASURED_ENDPOINT: pIC50
Give bare numbers, as −log10 of the molar value.

{"COMPOUND": "CCCS(=O)(=O)N1CCN(C2(CNC(=O)c3ccc(Cl)cc3C)CCC(F)(F)CC2)CC1 [compound 153, Hydrochloride]", "pIC50": 7.16}
{"COMPOUND": "Cn1cc(S(=O)(=O)N2CCN(C3(CNC(=O)c4c(F)cc(F)cc4F)CCC(F)(F)CC3)CC2)nn1 [compound 234, Hydrochloride]", "pIC50": 8.40}
{"COMPOUND": "CCCS(=O)(=O)N1CCN(C2(CNC(=O)c3ccc(Cl)c(Cl)c3)CCCCC2)CC1 [compound 26, Hydrochloride]", "pIC50": 6.61}
{"COMPOUND": "CCCS(=O)(=O)N1CCN(C2(CNC(=O)c3ccccc3Cl)CCC(F)(F)CC2)CC1 [compound 139, Hydrochloride]", "pIC50": 7.27}
{"COMPOUND": "CC(NC(=O)c1ccc(C(F)(F)F)cc1C(F)(F)F)C1(N2CCN(S(=O)(=O)c3cn(C)nn3)CC2)CCC(F)(F)CC1 (stereo not shown) [compound 226, Hydrochloride]", "pIC50": 9.00}
{"COMPOUND": "Cn1cnc(S(=O)(=O)N2CCN(C3(CNC(=O)c4ccccc4OC(F)(F)F)CCC(F)(F)CC3)CC2)c1 [compound 161, Hydrochloride]", "pIC50": 9.00}
{"COMPOUND": "Cn1ccc(S(=O)(=O)N2CCN(C3(CNC(=O)c4ccc(C(F)(F)F)cc4Cl)CCC(F)(F)CC3)CC2)n1 [compound 283, Hydrochloride]", "pIC50": 5.62}
{"COMPOUND": "O=C(NCC1(N2CCN(S(=O)(=O)N3CCC3)CC2)CCC(F)(F)CC1)c1ccc(C(F)(F)F)cc1Cl [compound 271, Hydrochloride]", "pIC50": 6.46}

Can you give me pIC50 for all of these, one by one?
1. Cn1cc(S(=O)(=O)N2CCN(C3(CNC(=O)c4ccc(F)cc4Cl)CCC(F)(F)CC3)CC2)nn1 [compound 192, Hydrochloride]
2. CCC(F)(F)S(=O)(=O)N1CCN(C2(CNC(=O)c3ccc(C(F)(F)F)cc3Cl)CCC(F)(F)CC2)CC1 [compound 251, Hydrochloride]
3. CCS(=O)(=O)N1CCN(C2(CNC(=O)c3c(C)cc(C)cc3C)CCC(F)(F)CC2)CC1 [compound 217, Hydrochloride]
4. CCCS(=O)(=O)N1CCN(C2(CNC(=O)c3c(F)cccc3OC)CCCCCC2)CC1 [compound 55, Hydrochloride]
5. CC(O)CS(=O)(=O)N1CCN(C2(CNC(=O)c3ccc(C(F)(F)F)cc3Cl)CCC(F)(F)CC2)CC1 (single isomer, unassigned; enantiomer b) [compound 279, Hydrochloride]

[9.00, 6.01, 6.67, 7.85, 7.17]

Cited source for all entries: patent US9045445B2
